target: T1, glutathione S-transferase (UniProt P08515 1-218 = GST); assay: indirect ELISA, GST coated;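 also: nanobody dilution series starting at 10 µM binding plate-bound antigen, HRP anti-His or anti-T7 tag detection, TMB absorbance at 450 nm, logIC50 from four-parameter logistic fit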
T1 construct: Expressed in E. coli, purified on GSH resin; also called GST
T1 sequence (P08515 whole entry): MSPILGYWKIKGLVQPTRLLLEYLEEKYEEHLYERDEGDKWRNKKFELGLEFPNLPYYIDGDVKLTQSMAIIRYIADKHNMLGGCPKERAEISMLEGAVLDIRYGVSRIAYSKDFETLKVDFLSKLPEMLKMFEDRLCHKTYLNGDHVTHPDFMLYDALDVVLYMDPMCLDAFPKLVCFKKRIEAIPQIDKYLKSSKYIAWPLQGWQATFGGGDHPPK
Could you label it Criterion met if measured ELISA affinity (LogIC50 (oD450nm)) is 4 or higher, and Criterion not met otherwise?

* G48 (VHH) VHH: QVQLVESGGGLVQAGGSLRLSCAASGRTFSTLSMGWFRQAPGQGREFVGGINYDGSSVEYADSVKGRFTISRDNAKNMMYLQMNSLKPEDTAAYYCASSRGYNTGTNPLGYDVWGQGTQVTVSS | Criterion not met
* G60 (VHH, also called G60(C1)) VHH: QMGRNSAEVQLVESGGSLRLSCAASGSGFSSSIIAWYRQAPGKQRELVAAIGGPGSTNYADFVEGRFTISRDNAKNTGYLQMNNLNPEDTAVYYCNEVTRSGREYWGQGTQVTVSS | Criterion not met
* G2 (VHH) VHH: EVQLVESGGDLVQAGGSLRLSCSASGNIFKINDMGWYRQAPGKQRELVARISSSGNTNYADSVKGRFTISRDNGKNTVYLQMNRVKPEDTAVYYCNADVQVSRNYEYEYWGQGTQVTVSS | Criterion not met
* G13 (VHH, also called G13(C3)) VHH: DVQLVESGGGVVQAGGSLRLSCAASGRTFSDYAMGWFRQAPGKEREFVAGVSWSGVDTYYADSVKGRFTISRDNAKNTLYVQMNSLKPEDTAVYYCAAQRYYHGHAKNMRYDYWGQGTQVTVSS | Criterion met
* G34 (VHH) VHH: QVQLVESGGGLVQAGDSLRLSCAASGRTFSRYAMAWFRQAPGKEREFVAGISWTGRFTYYADSVKGRFTISRDDAKNTVYLQMNNLKPEDTGLYFCKVGDPYGVGLREYEWWGPGTQVTVSS | Criterion met
* G22 (VHH) VHH: QVQLVESGGGSVQAGGSLRLSCAASGRTFSSYSMAWFRQAPGKEREFVAVMNCRYGDTDYPDSVKGRFTMSRDNAKNTLYLQMNSLKPEDTAVYYCAAKLIAYCGSGYYYRRNDYGYWGQGTQVTVSS | Criterion not met
* G9 (VHH) VHH: DVQLVESGGGLVQPGGSLRLSCAASGLTLDNYDMAWFRQAPGKEREFVTAINYVGGRTYADSVRGRFTISRDDTKNTVYLQMNSLKPEDTAVYYCAAGLQYGITSLRTRNYNYWGQGTQVTVSS | Criterion met
* G47 (VHH) VHH: QVQLVESGGGLVQAGGSLRLSCAASERIFSNYAMGWFRQAPGKEREFVASIRGSGSQTSYADSVKGRFTISRDGAKDTVDLQMNSLKPEDTAVYYCSAKKYCGSTYNRAEGYDYWGQGTQVTVSS | Criterion not met
